Tested on: HCT-15 colon
Measurement Notes: NCI tumour cell line growth inhibition, 48 h; in the data active means GI50 below about 0.43 µM; inactive means the rest
Outcomes: active, inactive

[
  {
    "Compound": "NCCSC(C[N+](=O)[O-])c1ccccc1Cl (centres undefined)",
    "Class Assignment": "inactive"
  },
  {
    "Compound": "CNc1ncc2cc(Oc3ccc(F)cc3F)c(=O)n(C)c2n1",
    "Class Assignment": "inactive"
  },
  {
    "Compound": "CCN(CC)CCC(=O)O[C@H]1CC[C@H](CC(C)[C@H]2CC(=O)C(C)C=C(C)[C@H](OC(=O)CCN(CC)CC)C(OC)C(=O)[C@@H](C)CC(C)/C=C/C=C/C=C(C)C(OC)CC3CC[C@H](C)[C@](O)(O3)C(=O)C(=O)N3CCCCC3C(=O)O2)CC1OC (some centres undefined)",
    "Class Assignment": "active"
  },
  {
    "Compound": "Cc1ccc(-c2c3c(N)c4c(nc3nc3c2c(C)nn3-c2ccccc2)CCC4)cc1",
    "Class Assignment": "inactive"
  }
]

Taken from PubChem BioAssay (NCI).
